Biological target: T1, human GIP receptor (human) (UniProt P48546)
T1 sequence (looked up): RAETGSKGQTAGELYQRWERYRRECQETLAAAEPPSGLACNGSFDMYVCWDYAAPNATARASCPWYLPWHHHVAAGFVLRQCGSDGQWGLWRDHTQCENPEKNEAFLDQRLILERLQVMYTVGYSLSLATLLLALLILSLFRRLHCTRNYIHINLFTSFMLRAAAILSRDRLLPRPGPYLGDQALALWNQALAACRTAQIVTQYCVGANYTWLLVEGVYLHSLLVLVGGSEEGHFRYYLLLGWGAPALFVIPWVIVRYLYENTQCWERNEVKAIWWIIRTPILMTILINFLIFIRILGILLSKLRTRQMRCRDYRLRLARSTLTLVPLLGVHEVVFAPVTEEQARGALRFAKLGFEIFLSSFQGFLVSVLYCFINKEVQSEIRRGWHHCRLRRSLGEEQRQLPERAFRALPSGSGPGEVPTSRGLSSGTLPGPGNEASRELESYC
Experiment: cell-based or functional assay
Where no end group is shown, it is not given here. Side-chain parts run from the residue outwards. [ ]: non-standard residue; d: D form. The star is where a group is joined. αMePhe(2-F) = C[C@](N)(Cc1ccccc1F)C(=O)O; C14 diacid = O=C(O)CCCCCCCCCCCCC(=O)*; αMeY = C[C@](N)(Cc1ccc(O)cc1)C(=O)O; αMeL = CC(C)C[C@](C)(N)C(=O)O; Orn = NCCC[C@H](N)C(=O)O; AEEA = NCCOCCOCC(=O)O; Aib = CC(C)(N)C(=O)O
readout-type: cAMP Emax (%)
Answers are plain numbers, in %.

As a guide, the following entries are already answered.
- binder: "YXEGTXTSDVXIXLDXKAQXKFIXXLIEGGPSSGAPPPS (Y-Aib-EGT-αMeF(2F)-TSDV-Aib-I-αMeL-LD-Orn-K((2-[2-(2-Amino-ethoxy)-ethoxy]-acetyl)-(γ-Glu)-CO-(CH2)12-CO2H)AQ-Aib-K((2-[2-(2-Amino-ethoxy)-ethoxy]-acetyl)-(γ-Glu)-CO-(CH2)12-CO2H)FI-(D-Glu)-αMeY-LIEGGPSSGAPPPS-NH2) [Example 398]"
  unit-string: "%"
  readout-number: 97.4
- binder: "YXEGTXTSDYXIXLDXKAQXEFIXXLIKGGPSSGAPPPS (Y-Aib-EGT-αMeF(2F)-TSDY-Aib-I-αMeL-LD-Orn-K((2-[2-(2-Amino-ethoxy)-ethoxy]-acetyl)2-(γ-Glu)-CO-(CH2)10-CH3)AQ-Aib-EFI-(D-Glu)-αMeY-LIK((2-[2-(2-Amino-ethoxy)-ethoxy]-acetyl)2-(γ-Glu)-CO-(CH2)10-CH3)GGPSSGAPPPS-NH2) [Example 301]"
  unit-string: "%"
  readout-number: 97.4
- binder: "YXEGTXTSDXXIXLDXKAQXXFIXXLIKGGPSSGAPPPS (Y-Aib-EGT-αMeF(2F)-TSD-4Pal-Aib-I-αMeL-LD-Orn-K((2-[2-(2-Amino-ethoxy)-ethoxy]-acetyl)2-(α-Glu)-(10-(4-carboxyphenoxy)decanoyl))AQ-Aib-Om-FI-(D-Glu)-αMeY-LIK((2-[2-(2-Amino-ethoxy)-ethoxy]-acetyl)2-(γ-Glu)-(10-(4-carboxyphenoxy)decanoyl))GGPSSGAPPPS-NH2) [Example 351]"
  unit-string: "%"
  readout-number: 102
- binder: "Y[Aib]EGT[αMePhe(2-F)]TSDV[Aib]I[αMeL]LD[Orn]K([AEEA-AEEA-C14 diacid])AQ[Aib]EFI[dE][αMeY]LIK([AEEA-AEEA-C14 diacid])GGPSSGAPPPS-NH2 [Example 389]"
  unit-string: "%"
  readout-number: 94.6
- binder: "YXEGTXTSDXSIXLDXKAQXKFIXXLIXGGPSSGAPPPS (Y-Aib-EGT-αMeF(2F)-TSD-4Pal-SI-αMeL-LD-Orn-K((2-[2-(2-Amino-ethoxy)-ethoxy]-acetyl)2-(γ-Glu)-CO-(CH2)10-CH3)AQ-Aib-K((2-[2-(2-Amino-ethoxy)-ethoxy]-acetyl)2-(γ-Glu)-CO-(CH2)10-CH3)FI-(D-Glu)-αMeY-LI-Orn-GGPSSGAPPPS-NH2) [Example 298]"
  unit-string: "%"
  readout-number: 97.4
- binder: "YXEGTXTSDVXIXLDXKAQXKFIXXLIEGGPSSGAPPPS (Y-Aib-EGT-αMeF(2F)-TSDV-Aib-I-αMeL-LD-Orn-K((2-[2-(2-Amino-ethoxy)-ethoxy]-acetyl)2-CO-(CH2)12-CO2H)AQ-Aib-K((2-[2-(2-Amino-ethoxy)-ethoxy]-acetyl)2-CO-(CH2)12-CO2H)FI-(D-Glu)-αMeY-LIEGGPSSGAPPPS-NH2) [Example 386]"
  unit-string: "%"
  readout-number: 95.7
- binder: "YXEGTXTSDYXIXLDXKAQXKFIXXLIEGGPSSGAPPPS (Y-Aib-EGT-αMeF(2F)-TSDY-Aib-I-αMeL-LD-Orn-K((2-[2-(2-Amino-ethoxy)-ethoxy]-acetyl)2-CO-(CH2)12-CO2H)AQ-Aib-K((2-[2-(2-Amino-ethoxy)-ethoxy]-acetyl)2-CO-(CH2)12-CO2H)FI-(D-Glu)-αMeY-LIEGGPSSGAPPPS-NH2) [Example 385]"
  unit-string: "%"
  readout-number: 95.2
- binder: "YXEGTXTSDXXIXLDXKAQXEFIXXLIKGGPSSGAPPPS (Y-Aib-EGT-αMeF(2F)-TSD-4Pal-Aib-I-αMeL-LD-Orn-K((2-[2-(2-Amino-ethoxy)-ethoxy]-acetyl)2-(10-(4-carboxyphenoxy)decanoyl))AQ-Aib-EFI-(D-Glu)-αMeY-LIK((2-[2-(2-Amino-ethoxy)-ethoxy]-acetyl)2-(10-(4-carboxyphenoxy)decanoyl))GGPSSGAPPPS-NH2) [Example 395]"
  unit-string: "%"
  readout-number: 93.1

Kindly consider the entry below.
**Query** Provide one value: measured cAMP Emax of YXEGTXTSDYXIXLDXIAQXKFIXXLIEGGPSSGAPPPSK (Y-Aib-EGT-αMeF(2F)-TSDY-Aib-I-αMeL-LD-Orn-IAQ-Aib-K((2-[2-(2-Amino-ethoxy)-ethoxy]-acetyl)-(γ-Glu)-(10-(4-carboxyphenoxy)decanoyl))FI-(D-Glu)-αMeY-LIEGGPSSGAPPPSK((2-[2-(2-Amino-ethoxy)-ethoxy]-acetyl)-(γ-Glu)-(10-(4-carboxyphenoxy)decanoyl))-NH2) [Example 377]
**Result** 92.8
